Recorded measurements of TGI, one per entry
Test system: SF-295 CNS
Assay: NCI tumour cell line growth inhibition, 48 h

>>> result("COC(=N)C1(C#N)NC(c2ccsc2)C(C#N)(C#N)NC1c1ccsc1 (centres undefined)")
"> 100 µM"
>>> result("O=P1(N(CCCl)CCCl)Oc2ccc(Cl)cc2C(C(Cl)(Cl)Cl)c2cc(Cl)ccc2O1 (centres undefined)")
"23.7 µM"
>>> result("COc1ccc(-c2ccc(OC)c(OC)c2OC)cc1")
"> 100 µM"
>>> result("C=C1C(=O)O[C@@H]2/C=C(/C)[C@@H](OC(C)=O)C/C=C(\\C)C(O)[C@@H](OC(=O)/C(C)=C\\C)C12 (some centres undefined)")
"> 100 µM"
>>> result("CC(=O)N1[C@H](C(=O)O)CS[C@H]1c1ccc(F)cc1")
"> 100 µM"
>>> result("CCCCCCCC(=O)OCC/C=C/C1OC1C1OC(=O)/C=C\\C=C\\C(=O)N(C(C)=O)C(=O)/C=C(/C)CCC2OC2C1OC(=O)NC(C)=O (centres undefined)")
"9.9 µM"
>>> result("N#Cc1c(-c2ccc([N+](=O)[O-])cc2)c(C#N)c(=O)n(NS(=O)(=O)c2ccccc2)c1S")
"> 100 µM"
>>> result("O=c1[nH]ccc(CNC23CC4CC(CC(C4)C2)C3)c1O")
"> 100 µM"

Next molecule, TGI to be filled in.
Sample `Nc1cc2c3c(cccc3c1)C(=O)N(CCN1CCCC1)C2=O` , system: SF-295 CNS. Its TGI is 11.2 µM

====

Test system: RXF 393 renal
Assay: NCI tumour cell line growth inhibition, 48 h
readout-label: TGI

>>> result("CCCCCCCC(=O)OCC/C=C/C1OC1C1OC(=O)/C=C\\C=C\\C(=O)N(C(C)=O)C(=O)/C=C(/C)CCC2OC2C1OC(=O)NC(C)=O (stereo not drawn)")
"9.45 µM"
>>> result("Cc1cn(CCCCCCOC(=O)NC(CCCNC(N)=O)C(=O)O)c(=O)[nH]c1=O (stereo not drawn)")
"> 100 µM"
>>> result("O=C1c2ccccc2-c2nc3ccncc3n21")
"> 100 µM"
>>> result("O=S(=O)(NC1=NCCN1C(=S)SN1CCn2c1nsc2=S)c1ccc(Cl)cc1")
"34.4 µM"
>>> result("CCOP(=O)(/C=C/n1cc(C)c(=O)[nH]c1=O)OCC")
"> 100 µM"

TGI reading for COc1ccc(-c2ccc(C3CC(c4ccccc4)=NN3)o2)c([N+](=O)[O-])c1 (stereo not drawn) : > 100 µM

// TGI value for Cn1c(=O)oc2cc(C3CCC(=O)N3Cc3csc(-c4ccccc4)n3)ccc21 (stereo not drawn) : > 100 µM

# TGI of `N#Cc1c(NC(=S)Nc2ccc(Cl)cc2)sc2c1CCN(N1CCc3c(sc(NC(=S)Nc4ccc(Cl)cc4)c3C#N)C1)C2` = 78.3 µM

====

Test system: SNB-19 CNS
Experiment: NCI tumour cell line growth inhibition, 48 h
Catalogue of TGI values

Take a look at these entries with their results.
>>> result("COC(=N)C1(C#N)NC(c2ccsc2)C(C#N)(C#N)NC1c1ccsc1 (stereo unspecified)")
"> 100 µM"
>>> result("O=C1c2cccc3cccc(c23)C(=O)N1CCCCCN1CCN(CCN=c2cc3n(-c4ccc(Cl)cc4)c4ccccc4nc-3cc2Nc2ccc(Cl)cc2)CC1")
"> 50 µM"
>>> result("CCOC(=O)NC(=S)N(CC(=O)c1cc(OC)c(OC)c(OC)c1)c1ccc(Cl)cc1")
"> 100 µM"
>>> result("COc1c2ccoc2nc2c(OC)c(OCC(O)C(C)(C)O)ccc12 (stereo unspecified)")
"> 100 µM"
>>> result("NC(=O)CCC(N=c1c2ccccc2n(O)c2ccccc12)C(=O)O (stereo unspecified)")
"> 100 µM"
>>> result("Oc1ccc(Cl)cc1C=Nc1cnc2ccccc2c1")
"> 100 µM"

Measured TGI, `Clc1ccc2c(c1)N(CCCN1CCCC13CCCCC3)c1ccccc1S2` : 34.3 µM

Record summary for `NC(N)=N/N=C\c1ccc(OCc2ccccc2)cc1` : reported TGI = 15.4 µM

Noted for `Cc1c(C)c2c(c(N)c1C#N)C(=O)N(N)C2=O` : its TGI reads > 100 µM

Entry under test: CC(=O)NC1C(OCc2ccccc2)OC(CO)C(O)C1OC(C)C(=O)N[C@@H](C)C(=O)N[C@H](CCC(=O)NCCNCCNc1c2ccccc2nc2cccc([N+](=O)[O-])c12)C(N)=O (stereo partly specified) . Its TGI was 1.86 µM

// `Clc1ccccc1C(Nc1cnccn1)Nc1cnccn1` : TGI value = > 100 µM
